runDescription: Metabolic stability in human liver microsomes assessed as half life at 1 uM measured upto 60 mins by UPLC-MS/MS analysis
Type: ADME, Microsome
quantityMeasured: half-life at 1 µM (min)
The answer is to be given in min; state only the numeric part.

Data request: Entry under review: Cc1ccc(C(=O)Nc2c(O)ccc3c(C)cc(=O)oc23)cc1 . Reported half-life at 1 µM?
Data returned: 6.84

###

runDescription: Metabolic stability in mouse liver microsomes assessed as intrinsic clearance at 1 uM measured upto 60 mins by UPLC-MS/MS analysis
Assay type: ADME, Microsome
conditionNotes: read-out: CLH
quantityMeasured: microsomal CLint at 1 µM

Data request: Entry Cc1ccc(C(=O)Nc2c(O)ccc3c(C)cc(=O)oc23)cc1 has what microsomal CLint at 1 µM?
Data returned: 131 µL/min/mg
